System: Plasmodium falciparum
Assay: Antimalarial activity against Plasmodium falciparum 3D7 infected in human erythrocytes measured after 72 hrs by absorbance based analysis
Type: functional, organism-based
Details: 3D7, 72 h

compound_string: CCCCCC(=O)[C@@H](CCCC)c1oc(=O)c(CCC(C)C)c(O)c1CCCC
IC50: 1.3 µg/mL
//
compound_string: CCCCc1c(CCCC(C)C)oc(=O)c(CCCC)c1O
IC50: > 10 µg/mL
//
compound_string: CCCCCCCc1oc(=O)c(CCCC)c(O)c1CCCC
IC50: 0.1 µg/mL
//
compound_string: CCCCc1c([C@H](CCCC)C(=O)CCCC(C)C)oc(=O)c(CCC(C)C)c1O
IC50: 0.1 µg/mL
//
compound_string: CCCCCC(=O)[C@@H](CCCC)c1oc(=O)c(CC(C)C)c(O)c1CCCC
IC50: > 10 µg/mL
//
compound_string: CCCCCC(=O)[C@@H](CCC(C)C)c1oc(=O)c(CCCC)c(O)c1CCCC
IC50: 6.9 µg/mL
//
compound_string: CCCCCC(=O)[C@@H](CCCC)c1oc(=O)c(CCCC)c(O)c1CCCC
IC50: 2.3 µg/mL
//
compound_string: CCCCc1c([C@H](CCCC)C(=O)CCC(C)C)oc(=O)c(CCCC)c1O
IC50: 9.4 µg/mL
//
compound_string: CCCCc1c(O)c(CCC(C)C)c([C@H](CCCC)C(=O)CCCC(C)C)oc1=O
IC50: 6.3 µg/mL
//
compound_string: CCCCc1c([C@H](CCC(C)C)C(=O)CCCC(C)C)oc(=O)c(CCCC)c1O
IC50: 7.7 µg/mL
//
compound_string: CCCCCc1oc(=O)c(CCCC)c(O)c1CCCC
IC50: 1.9 µg/mL
//
compound_string: CCCCCCc1c(O)c(CCCC)c([C@H](CCCC)C(=O)CCCCC)oc1=O
IC50: 8 µg/mL
